tested on: Saccharomyces cerevisiae; test: protein stability index of tFT-peptide fusion (C-terminal peptide) (PSI (0-1 scale)); higher = more stable (slower turnover); conditions: genetic background: das1 deletion; temperature: 30 C
Exercise: state measured protein stability index for each of the sequences provided.
Just the number, please.

[in] Provide the reported protein stability index (system: Saccharomyces cerevisiae) for IEAATQAFLDSQ [WIP1 C-terminal 12 aa]
[out] 0.698

[in] Fill: protein stability index (Saccharomyces cerevisiae) for this sequence KKKFSFFGKRKK [PAM1 C-terminal 12 aa]
[out] 0.684

[in] Please respond with reported protein stability index (system Saccharomyces cerevisiae) for SSVRTLDSNIWR [ISC10 C-terminal 12 aa] .
[out] 0.713

[in] Report protein stability index on Saccharomyces cerevisiae for this entry: KFLRYNPLEKRD [RPB10 C-terminal 12 aa]
[out] 0.693

[in] Would you please give the reported protein stability index of CGGRPQYGVMFA [YDR249C C-terminal 12 aa] with Saccharomyces cerevisiae?
[out] 0.689

[in] Report the value of protein stability index obtained on Saccharomyces cerevisiae for GKYNIKVKLNFI [VAR1 C-terminal 12 aa] .
[out] 0.704

[in] // fetch protein stability index for IMDKLRAMKNRM [GLO2 C-terminal 12 aa] ; system: Saccharomyces cerevisiae
[out] 0.689

[in] Identify measured protein stability index obtained with Saccharomyces cerevisiae for EETEKKLKNLKL [YRB30 C-terminal 12 aa] .
[out] 0.703

[in] State, for Saccharomyces cerevisiae, measured protein stability index of the sequence listed here: EGSAFKKQKHYR [NOP9 C-terminal 12 aa]
[out] 0.703

====

system: Saccharomyces cerevisiae; assay: protein stability index of tFT-peptide fusion in wild type (PSI (0-1 scale)); higher = more stable (slower turnover); conditions: genetic background: wild type
Value Kind: protein stability index
# answer = number (no unit)

[in] Using the record for `GLAMCSVGCWFR` , state its measured protein stability index.
[out] 0.268

[in] Specify protein stability index for `RVTRLDAIDFRI` and stop.
[out] 0.668

[in] Give protein stability index for `ARWRVGLIRGAS`
[out] 0.561

[in] Return reported protein stability index. Input sequence: `CTSCGYKFRTWN`
[out] 0.288

[in] Give the measured protein stability index for `RVTRLVAIYFRI`
[out] 0.19

[in] Give protein stability index for `ARWRVGLWRGASN`
[out] 0.658

[in] # return recorded protein stability index for entry `AITLPMCPLLLK`
[out] 0.269

[in] For the sequence `AITLPMLPLLLR` , report protein stability index.
[out] 0.125

[in] Specify measured protein stability index for `KLVSLPILLFFR` .
[out] 0.0816

[in] For the sequence `RVTRLDAIYFRK` , give its reported protein stability index.
[out] 0.673

[in] Hello, please tell me recorded protein stability index for this one: `LVVYLSCVACIL`
[out] 0.0189

[in] Tell me its protein stability index given `KKHKKGQKQKVN` as the entry.
[out] 0.208

[in] Please look at this sequence and report its protein stability index: `GLYMCSVGMWFR`
[out] 0.307

[in] Report measured protein stability index; entry is `RVTRLWAIYFRI`
[out] 0.167

[in] Identify the reported protein stability index for the following entry. `RVTRLDAIYFEI`
[out] 0.69

[in] Name the recorded protein stability index of the item `GLYMCSVACWFR` in your answer.
[out] 0.228

[in] Using known records, supply protein stability index for `RLINPLPVQFLN`
[out] 0.0773

[in] Determine its reported protein stability index: `RSLRVLLFLYFR`
[out] 0.21

[in] Identify protein stability index associated with the sequence `PSLARSFWRVVG`
[out] 0.293

[in] Determine from records and report protein stability index for `LVVYLSCVACWN`
[out] 0.0216

[in] Fill in protein stability index for record `LKIDRQKMNHQN`
[out] 0.241

[in] # return recorded protein stability index for input `RVTRRDAIYFRI`
[out] 0.485

[in] Please give measured protein stability index of the following entry: `LVVYLSCVAPIN`
[out] 0.457

[in] Fill in protein stability index for record `PSLAASFWRVVG`
[out] 0.146

[in] Input `PDKHNHLIKLLN` , output reported protein stability index.
[out] 0.0998

[in] Consider the sequence `KKHKKGQQQKIN` . State its measured protein stability index.
[out] 0.162

[in] Supply reported protein stability index belonging to this sequence: `GLYMCSVKCWFR`
[out] 0.415

[in] Give the value of protein stability index reported for the following: `CTSCGRKFRTNN`
[out] 0.456

[in] # return recorded protein stability index for entry `RLIQPLPVQFLNP`
[out] 0.65

[in] For the sequence `LVVYLFCVACIN` , give its reported protein stability index.
[out] 0.0137

[in] Could you please provide reported protein stability index for `GKILRQKMNHQN` ? Thanks!
[out] 0.263

[in] Output protein stability index of `AYTLPMCPLLLR`
[out] 0.171

[in] Give the value of protein stability index reported for the following: `CLCSLPILLFFR`
[out] 0.106

[in] Fill in protein stability index for record `KKHKKGQKQKGN`
[out] 0.61

[in] // fetch protein stability index given entry `ARWRVGLWRGAH`
[out] 0.536

[in] Determine its reported protein stability index: `CTSCGYKFRTNV`
[out] 0.53

[in] Return the recorded protein stability index value; entry: `VRGAVGGWRLVGG`
[out] 0.66

[in] Please supply the value of reported protein stability index for the item `GLYMCSLGCWFR`
[out] 0.283

[in] Please supply the value of reported protein stability index for the item `KKHKKHQKQKIN`
[out] 0.0431

[in] Quote protein stability index reported for `ARWRVGLWRGDS` please.
[out] 0.667

[in] Provide one value: measured protein stability index of `ARWRVGDWRGAS`
[out] 0.665

[in] Supply measured protein stability index of `PDKRNHLIKLLNI` in your reply.
[out] 0.216

[in] Name the recorded protein stability index of the sequence listed here: `PDRRNHLIKLLN`
[out] 0.118

[in] Give me measured protein stability index, please, for this sequence: `VRGAVGGWRLEG`
[out] 0.642

[in] Specify reported protein stability index for the sequence shown: `VRGQVGGWRLVG`
[out] 0.147

[in] Note protein stability index for the sequence shown: `PSLAASFWRDVG`
[out] 0.645

[in] Using known records, supply protein stability index for `CTSCGYKFRSNN`
[out] 0.508

[in] Dear colleague, please send me the reported protein stability index for `CLVSLPILLAFR` when you can.
[out] 0.115

[in] Please supply the value of reported protein stability index for the item `RVTRLDAITFRI`
[out] 0.678

[in] Read the entry `CTSCGYKFRTGN` and write its reported protein stability index.
[out] 0.581

[in] Input `PILAASFWRVVG` , output reported protein stability index.
[out] 0.145

[in] Please give measured protein stability index of the following entry: `FSMRWTFRLWVN`
[out] 0.028

[in] Hello, please tell me recorded protein stability index for this one: `ARWRVGLWRGMS`
[out] 0.202

[in] Using the record for `CTSCGHKFRTNN` , state its measured protein stability index.
[out] 0.256

[in] Look up and state reported protein stability index for `FPMRWTFRYWVN`
[out] 0.062

[in] Quickly give me recorded protein stability index for `AITDPMCPLLLR`
[out] 0.603

[in] Return reported protein stability index. Input sequence: `ARWRVGKWRGAS`
[out] 0.327

[in] Could you please provide reported protein stability index for `AIKLPMCPLLLR` ? Thanks!
[out] 0.276

[in] Please indicate protein stability index recorded for `CTMCGYKFRTNN`
[out] 0.236

[in] Identify protein stability index associated with the sequence `GLYMCSVGCWFRS`
[out] 0.267

[in] Please give the documented protein stability index of `CLVSLPILLFFD`
[out] 0.433

[in] Retrieve protein stability index measured for `PSLAASFWHVVG` and print it.
[out] 0.46

[in] Note down protein stability index recorded for `CLVSLPIYLFFR`
[out] 0.0617

[in] Find the measured protein stability index of `CLVSLPILLDFR` and report it.
[out] 0.553

[in] Retrieve protein stability index measured for `CTSCPYKFRTNN` and print it.
[out] 0.261

[in] Return protein stability index (reported value) for this sequence: `RSLRVLLPLYFV`
[out] 0.25

[in] Please look at this sequence and report its protein stability index: `LKILRQKMVHQN`
[out] 0.19

[in] Retrieve protein stability index measured for `VRGAVGAWRLVG` and print it.
[out] 0.144

[in] Input `LVVYLSCVGCIN` , output reported protein stability index.
[out] 0.244

[in] Supply measured protein stability index of `PMKRNHLIKLLN` in your reply.
[out] 0.069

[in] Read the entry `FSMRWTFRYWVNA` and write its reported protein stability index.
[out] 0.163

[in] Indicate the recorded protein stability index value for this sequence: `PSNAASFWRVVG`
[out] 0.162

[in] Note protein stability index for the sequence shown: `ARWRVGCWRGAS`
[out] 0.524

[in] Note protein stability index for the sequence shown: `PDKRNHLIKLLT`
[out] 0.205

[in] Fill in protein stability index for record `PSLAASFWQVVG`
[out] 0.465
